Biological target: T1, human neonatal Fc receptor (hFcRn) (human, UniProt P55899 24-290; P61769 21-119)
T1 construct: Biotinylated in the ELISA, Octet and yeast assays; also called human FcRn; huFcRn
T1 sequence (P55899 24-290 limits assumed, chain 1 of 2): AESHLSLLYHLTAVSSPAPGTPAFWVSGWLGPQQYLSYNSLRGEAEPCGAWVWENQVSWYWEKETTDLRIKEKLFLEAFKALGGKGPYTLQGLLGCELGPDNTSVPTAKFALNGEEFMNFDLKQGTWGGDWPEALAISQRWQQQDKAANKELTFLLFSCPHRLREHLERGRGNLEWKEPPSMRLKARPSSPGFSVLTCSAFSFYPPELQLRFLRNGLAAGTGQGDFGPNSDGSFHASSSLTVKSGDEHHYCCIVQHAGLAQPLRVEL
T1 sequence (P61769 21-119 limits assumed, chain 2 of 2): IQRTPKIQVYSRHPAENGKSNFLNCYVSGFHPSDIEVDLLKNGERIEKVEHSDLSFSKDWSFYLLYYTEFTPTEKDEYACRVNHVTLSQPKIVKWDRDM
Assay: phage ELISA pH 7.4;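 also: higher score means stronger binding and above about 3 to 5 exceeds background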
Each entry below carries its reported ELISA score.
I'd appreciate a reply containing only the number, no unit.

[[record]]
binder = "L6A isolate with insertion SEQ ID NO: 400 (other) EPKSCDKTHTCPPCPAPELLGGPSVFLFPPKPKDTLMISRTPEVTCVVVDVSHEDPEVKFNWYVDGVEVHNAKTKPREEQYNSTYRVVSVLTVLHQDWLNGKEYKCKVSNKALPAPIEKTISKAKGQPREPQVYTLPPSRDELGGCRAGYGDASCGGTKNQVSLTCLVKGFYPSDIAVEWESNGQPENNYKTTPPVLDSDGSFFLYSKLTVDKSRWQQGNVFSCSVMHEALHNHYTQKSLSLSPGK"
experimental_result = 0.7

[[record]]
binder = "L5 isolate with insertion SEQ ID NO: 490 (other) EPKSCDKTHTCPPCPAPELLGGPSVFLFPPKPKDTLMISRTPEVTCVVVDVSHEDPEVKFNWYVDGVEVHNAKTKPREEQYNSTYRVVSVLTVLHQDWLNGKEYKCKVSNKALPAPIEKTISKAKGQPREPQVYTLPPSRDELTKNQVSLTCLVKGFYPSDIAVEWESNGGCDRQVTGFCGGGQPENNYKTTPPVLDSDGSFFLYSKLTVDKSRWQQGNVFSCSVMHEALHNHYTQKSLSLSPGK"
experimental_result = 0.4


Next item in the queue.
Query: What measured ELISA score goes with L5 isolate with insertion SEQ ID NO: 425 (other) EPKSCDKTHTCPPCPAPELLGGPSVFLFPPKPKDTLMISRTPEVTCVVVDVSHEDPEVKFNWYVDGVEVHNAKTKPREEQYNSTYRVVSVLTVLHQDWLNGKEYKCKVSNKALPAPIEKTISKAKGQPREPQVYTLPPSRDELTKNQVSLTCLVKGFYPSDIAVEWESNGGCIGPFWWCGGGQPENNYKTTPPVLDSDGSFFLYSKLTVDKSRWQQGNVFSCSVMHEALHNHYTQKSLSLSPGK ?
Response: 0.3

Source of measurements: patent US20140356358A1
